Examples of molecules with documented IC50 follow.
biological target: myocardial ATP-sensitive potassium channel (SUR2A/Kir6.2) (UniProt Q61743+Q63563); test: Rubidium efflux test on HEK293 cells transfected with SUR2A and Kir6.2 (myocardial action); settings: HEK293 cells transfected with SUR2A/Kir6.2; KATP channels opened by rilmakalim; 25 min incubation; read-out: IC50 values for the inhibition of the rubidium efflux
Sequence (Q63563 whole entry): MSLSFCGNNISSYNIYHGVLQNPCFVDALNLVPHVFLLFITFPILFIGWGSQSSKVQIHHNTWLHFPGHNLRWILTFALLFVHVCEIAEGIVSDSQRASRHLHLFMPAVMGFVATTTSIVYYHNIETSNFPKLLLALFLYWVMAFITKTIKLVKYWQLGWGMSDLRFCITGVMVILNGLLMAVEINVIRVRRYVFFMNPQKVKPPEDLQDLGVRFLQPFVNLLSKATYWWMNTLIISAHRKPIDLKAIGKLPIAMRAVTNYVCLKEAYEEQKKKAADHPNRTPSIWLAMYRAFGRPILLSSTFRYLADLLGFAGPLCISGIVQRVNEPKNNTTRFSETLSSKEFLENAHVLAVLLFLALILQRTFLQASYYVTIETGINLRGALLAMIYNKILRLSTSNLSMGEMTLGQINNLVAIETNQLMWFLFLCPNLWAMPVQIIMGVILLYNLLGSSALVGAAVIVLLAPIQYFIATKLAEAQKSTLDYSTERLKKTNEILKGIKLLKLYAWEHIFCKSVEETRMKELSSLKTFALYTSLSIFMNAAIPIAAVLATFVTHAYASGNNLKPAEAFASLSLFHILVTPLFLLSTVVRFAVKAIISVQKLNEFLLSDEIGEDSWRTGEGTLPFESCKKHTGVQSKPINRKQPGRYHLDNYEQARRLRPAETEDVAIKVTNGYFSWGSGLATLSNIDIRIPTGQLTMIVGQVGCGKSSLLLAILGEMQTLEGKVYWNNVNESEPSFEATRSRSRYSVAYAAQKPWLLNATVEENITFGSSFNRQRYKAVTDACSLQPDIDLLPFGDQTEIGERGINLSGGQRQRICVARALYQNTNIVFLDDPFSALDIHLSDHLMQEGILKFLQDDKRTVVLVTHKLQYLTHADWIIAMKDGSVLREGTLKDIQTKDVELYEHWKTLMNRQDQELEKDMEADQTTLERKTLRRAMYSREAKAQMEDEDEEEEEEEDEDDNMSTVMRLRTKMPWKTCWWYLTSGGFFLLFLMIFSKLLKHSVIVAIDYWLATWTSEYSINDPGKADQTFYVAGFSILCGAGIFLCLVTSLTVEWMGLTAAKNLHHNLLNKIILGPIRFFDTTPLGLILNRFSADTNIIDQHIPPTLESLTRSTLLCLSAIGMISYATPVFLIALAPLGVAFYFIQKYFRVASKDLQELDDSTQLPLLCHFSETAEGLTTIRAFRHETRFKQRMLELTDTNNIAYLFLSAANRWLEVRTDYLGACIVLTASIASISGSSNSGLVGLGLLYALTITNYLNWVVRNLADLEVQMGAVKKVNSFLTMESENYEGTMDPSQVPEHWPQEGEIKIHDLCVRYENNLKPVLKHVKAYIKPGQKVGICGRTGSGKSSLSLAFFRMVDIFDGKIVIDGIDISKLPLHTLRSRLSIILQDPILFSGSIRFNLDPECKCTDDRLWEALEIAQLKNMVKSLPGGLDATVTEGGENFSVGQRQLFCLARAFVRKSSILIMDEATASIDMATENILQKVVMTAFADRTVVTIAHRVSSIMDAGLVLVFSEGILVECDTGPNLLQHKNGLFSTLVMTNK
Sequence (Q61743 whole entry): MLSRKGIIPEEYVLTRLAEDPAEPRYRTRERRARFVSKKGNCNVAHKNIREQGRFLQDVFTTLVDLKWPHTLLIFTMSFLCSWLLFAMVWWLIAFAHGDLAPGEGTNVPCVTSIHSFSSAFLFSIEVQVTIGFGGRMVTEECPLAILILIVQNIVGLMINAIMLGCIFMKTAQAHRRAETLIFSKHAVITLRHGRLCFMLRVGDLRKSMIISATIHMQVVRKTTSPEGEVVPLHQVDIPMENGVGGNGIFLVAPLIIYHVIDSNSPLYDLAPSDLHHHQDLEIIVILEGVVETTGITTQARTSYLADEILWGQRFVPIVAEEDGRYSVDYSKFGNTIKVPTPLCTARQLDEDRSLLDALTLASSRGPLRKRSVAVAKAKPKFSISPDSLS

{"Molecule": "Cc1nc([C@]2(Oc3ccccc3)CC[C@](C(=O)O)(c3ccccc3)CC2)n(CC2CC2)c1Cl", "Test Target": "myocardial ATP-sensitive potassium channel (SUR2A/Kir6.2) (UniProt Q61743+Q63563)", "IC50": "< 1 µM"}
{"Molecule": "O=C(O)[C@]1(c2ccccc2)CC[C@](OCC2CC2)(c2nc3cc(F)ccc3n2CC2CC2)CC1", "Test Target": "myocardial ATP-sensitive potassium channel (SUR2A/Kir6.2) (UniProt Q61743+Q63563)", "IC50": "< 1 µM"}
{"Molecule": "Cc1nc([C@]2(OCC3CC3)CC[C@](C(=O)O)(c3ccc(F)cc3)CC2)n(CC2CC2)c1Cl", "Test Target": "myocardial ATP-sensitive potassium channel (SUR2A/Kir6.2) (UniProt Q61743+Q63563)", "IC50": "< 1 µM"}
{"Molecule": "O=C(O)C1(c2ccc(F)cc2)CCC(OCC2CC2)(c2ccc(F)cc2)CC1 (centres unmarked)", "Test Target": "myocardial ATP-sensitive potassium channel (SUR2A/Kir6.2) (UniProt Q61743+Q63563)", "IC50": "< 1 µM"}
{"Molecule": "CSc1cc(F)ccc1C1(OCC2CC2)CCC(C(=O)O)(c2ccc(F)cc2)CC1 (centres unmarked)", "Test Target": "myocardial ATP-sensitive potassium channel (SUR2A/Kir6.2) (UniProt Q61743+Q63563)", "IC50": "< 1 µM"}
{"Molecule": "COC1(c2ccc(F)cc2)CCC(C(=O)O)(c2ccccc2)CC1 (centres unmarked)", "Test Target": "myocardial ATP-sensitive potassium channel (SUR2A/Kir6.2) (UniProt Q61743+Q63563)", "IC50": "< 1 µM"}
{"Molecule": "Cc1nc([C@]2(OCC3CC3)CC[C@](C(=O)O)(c3ccc(OC(F)(F)F)cc3)CC2)n(CC2CC2)c1Cl", "Test Target": "myocardial ATP-sensitive potassium channel (SUR2A/Kir6.2) (UniProt Q61743+Q63563)", "IC50": "< 1 µM"}
{"Molecule": "O=C(O)[C@]1(c2ccccc2)CC[C@@](OCC2CC2)(c2nc(-c3ccccc3)cs2)CC1", "Test Target": "myocardial ATP-sensitive potassium channel (SUR2A/Kir6.2) (UniProt Q61743+Q63563)", "IC50": "< 1 µM"}
{"Molecule": "CS(=O)(=O)n1c2ccccc2cc1[C@]1(OCC2CC2)CC[C@](C(=O)O)(c2ccccc2)CC1", "Test Target": "myocardial ATP-sensitive potassium channel (SUR2A/Kir6.2) (UniProt Q61743+Q63563)", "IC50": "< 1 µM"}
{"Molecule": "Cc1cn(CC2CC2)c([C@]2(OCC3CC3)CC[C@](C(=O)O)(c3ccc(F)cc3)CC2)n1", "Test Target": "myocardial ATP-sensitive potassium channel (SUR2A/Kir6.2) (UniProt Q61743+Q63563)", "IC50": "< 1 µM"}
{"Molecule": "Cc1nc([C@]2(OCC3CC3)CC[C@](C(=O)O)(c3cccnc3)CC2)n(CC2CC2)c1Cl", "Test Target": "myocardial ATP-sensitive potassium channel (SUR2A/Kir6.2) (UniProt Q61743+Q63563)", "IC50": "< 1 µM"}
{"Molecule": "CCCOC1(c2ccc(F)cc2)CCC(C(=O)O)(c2ccccc2)CC1 (centres unmarked)", "Test Target": "myocardial ATP-sensitive potassium channel (SUR2A/Kir6.2) (UniProt Q61743+Q63563)", "IC50": "< 1 µM"}
{"Molecule": "O=C(O)[C@]1(c2ccc(F)cc2)CC[C@@](OCC2CC2)(c2ccc(F)cn2)CC1", "Test Target": "myocardial ATP-sensitive potassium channel (SUR2A/Kir6.2) (UniProt Q61743+Q63563)", "IC50": "< 1 µM"}
{"Molecule": "Cc1c(Cl)nc([C@]2(OCC3CC3)CC[C@](C(=O)O)(c3ccccc3)CC2)n1CC1CC1", "Test Target": "myocardial ATP-sensitive potassium channel (SUR2A/Kir6.2) (UniProt Q61743+Q63563)", "IC50": "< 1 µM"}
{"Molecule": "O=C(O)[C@]1(c2ccccc2)CC[C@@](OCC2(c3ccccc3)COC2)(c2nccn2CC2CC2)CC1", "Test Target": "myocardial ATP-sensitive potassium channel (SUR2A/Kir6.2) (UniProt Q61743+Q63563)", "IC50": "< 1 µM"}
{"Molecule": "O=C(O)[C@]1(c2ccccc2)CC[C@@](OCC2(c3ccccc3)COC2)(c2ccc(F)cc2)CC1", "Test Target": "myocardial ATP-sensitive potassium channel (SUR2A/Kir6.2) (UniProt Q61743+Q63563)", "IC50": "< 1 µM"}
{"Molecule": "Cc1c(F)cc([C@]2(OCC3CC3)CC[C@](C(=O)O)(c3ccc(F)cc3)CC2)cc1S(=O)(=O)C(C)C", "Test Target": "myocardial ATP-sensitive potassium channel (SUR2A/Kir6.2) (UniProt Q61743+Q63563)", "IC50": "< 1 µM"}
{"Molecule": "COC1(c2ccc(F)cc2)CCC(C(=O)O)(c2ccccc2OC(F)(F)F)CC1 (centres unmarked)", "Test Target": "myocardial ATP-sensitive potassium channel (SUR2A/Kir6.2) (UniProt Q61743+Q63563)", "IC50": "< 1 µM"}
{"Molecule": "COC1(c2ccc(C)c(F)c2)CCC(C(=O)O)(c2ccccc2)CC1 (centres unmarked)", "Test Target": "myocardial ATP-sensitive potassium channel (SUR2A/Kir6.2) (UniProt Q61743+Q63563)", "IC50": "< 1 µM"}
{"Molecule": "O=C(O)C1(c2ccccc2)CCC(O)(c2ccc(Cl)c(C(F)(F)F)c2)CC1 (centres unmarked)", "Test Target": "myocardial ATP-sensitive potassium channel (SUR2A/Kir6.2) (UniProt Q61743+Q63563)", "IC50": "< 1 µM"}
{"Molecule": "Cc1nc([C@]2(OCCC(C)C)CC[C@](C(=O)O)(c3ccccc3)CC2)n(CC2CC2)c1C", "Test Target": "myocardial ATP-sensitive potassium channel (SUR2A/Kir6.2) (UniProt Q61743+Q63563)", "IC50": "< 1 µM"}
{"Molecule": "Cc1nc([C@]2(OCC3CC3)CC[C@@](C(=O)O)(c3ccc(F)cc3)CC2)n(CC2CC2)c1Br", "Test Target": "myocardial ATP-sensitive potassium channel (SUR2A/Kir6.2) (UniProt Q61743+Q63563)", "IC50": "< 1 µM"}
{"Molecule": "O=C(O)C1(c2ccccc2)CCC(OCC2CC2)(c2ccc(F)cc2)CC1 (centres unmarked)", "Test Target": "myocardial ATP-sensitive potassium channel (SUR2A/Kir6.2) (UniProt Q61743+Q63563)", "IC50": "< 1 µM"}
{"Molecule": "COC1(c2ccc(Cl)cn2)CCC(C(=O)O)(c2ccccc2)CC1 (centres unmarked)", "Test Target": "myocardial ATP-sensitive potassium channel (SUR2A/Kir6.2) (UniProt Q61743+Q63563)", "IC50": "< 1 µM"}
{"Molecule": "O=C(O)C1(c2ccccc2)CCC(O)(c2ccc(F)cc2F)CC1 (centres unmarked)", "Test Target": "myocardial ATP-sensitive potassium channel (SUR2A/Kir6.2) (UniProt Q61743+Q63563)", "IC50": "< 1 µM"}
{"Molecule": "CS(=O)(=O)c1ccc(-c2nc([C@]3(Oc4ccccc4)CC[C@@](C(=O)O)(c4ccccc4)CC3)n(CC3CC3)n2)cc1", "Test Target": "myocardial ATP-sensitive potassium channel (SUR2A/Kir6.2) (UniProt Q61743+Q63563)", "IC50": "< 1 µM"}
{"Molecule": "O=C(O)[C@]1(c2ccccc2)CC[C@@](OCC2CC2)(c2ccnc(-c3ccccc3)c2)CC1", "Test Target": "myocardial ATP-sensitive potassium channel (SUR2A/Kir6.2) (UniProt Q61743+Q63563)", "IC50": "< 1 µM"}
{"Molecule": "COC1(c2ccc(F)cc2)CCC(C(=O)O)(c2ccccc2F)CC1 (centres unmarked)", "Test Target": "myocardial ATP-sensitive potassium channel (SUR2A/Kir6.2) (UniProt Q61743+Q63563)", "IC50": "< 1 µM"}
{"Molecule": "O=C(O)[C@]1(c2ccc(F)cc2)CC[C@](Oc2ccccc2)(c2ccc(F)cn2)CC1", "Test Target": "myocardial ATP-sensitive potassium channel (SUR2A/Kir6.2) (UniProt Q61743+Q63563)", "IC50": "< 1 µM"}
{"Molecule": "O=C(O)[C@]1(c2ccccc2)CC[C@@](OCC2CC2)(c2ccc(F)cn2)CC1", "Test Target": "myocardial ATP-sensitive potassium channel (SUR2A/Kir6.2) (UniProt Q61743+Q63563)", "IC50": "< 1 µM"}
{"Molecule": "O=C(O)[C@]1(c2ccccc2)CC[C@](OCC2CC2)(c2nc3cc(Cl)ccc3n2CC2CC2)CC1", "Test Target": "myocardial ATP-sensitive potassium channel (SUR2A/Kir6.2) (UniProt Q61743+Q63563)", "IC50": "< 1 µM"}
{"Molecule": "CS(=O)(=O)c1ccccc1C1(OCC2CC2)CCC(C(=O)O)(c2ccc(F)cc2)CC1 (centres unmarked)", "Test Target": "myocardial ATP-sensitive potassium channel (SUR2A/Kir6.2) (UniProt Q61743+Q63563)", "IC50": "< 1 µM"}

Measured values drawn from patent US8076324B2 for this set.
